Target chain: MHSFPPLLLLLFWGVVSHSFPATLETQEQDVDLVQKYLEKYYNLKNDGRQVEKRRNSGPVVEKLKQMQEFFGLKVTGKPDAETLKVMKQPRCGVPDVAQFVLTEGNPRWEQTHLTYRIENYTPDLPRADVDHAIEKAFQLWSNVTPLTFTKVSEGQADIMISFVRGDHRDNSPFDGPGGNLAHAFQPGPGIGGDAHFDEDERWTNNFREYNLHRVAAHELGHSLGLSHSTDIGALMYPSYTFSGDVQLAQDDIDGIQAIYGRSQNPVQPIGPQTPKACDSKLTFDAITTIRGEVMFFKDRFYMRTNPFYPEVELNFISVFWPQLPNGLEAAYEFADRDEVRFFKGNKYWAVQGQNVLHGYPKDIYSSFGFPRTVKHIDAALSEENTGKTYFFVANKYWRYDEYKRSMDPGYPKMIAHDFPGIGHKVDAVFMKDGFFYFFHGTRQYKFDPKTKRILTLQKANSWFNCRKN
ENDPOINT_NAME: IC50 (µM)
Form entry: value (µM) — number only.

QUERY: Data request, read-out IC50, for COc1ccc(-c2ccc(S(=O)(=O)NC(CC#Cc3cccc(N4CCOCC4)c3)C(=O)O)cc2)cc1 (stereo unspecified)
RESULT: 3.66

QUERY: Could you do the same for COCC#CCC(NS(=O)(=O)c1ccc(-c2ccc(Br)cc2)cc1)C(=O)O (stereo unspecified) , please?
RESULT: 24.8

QUERY: Could you do the same for COc1ccc(-c2ccc(S(=O)(=O)NC(C(=O)O)[C@@H](C#Cc3ccccc3)OC)cc2)cc1 (stereo partly specified) , please?
RESULT: 4.2

QUERY: Could you do the same for CO[C@H](C#Cc1ccccc1)C(NS(=O)(=O)c1ccc(-c2ccc(SC)cc2)cc1)C(=O)O (stereo partly specified) , please?
RESULT: 3.4

QUERY: Could you do the same for COc1ccc(-c2ccc(S(=O)(=O)NC(CC#CCc3ccccc3)C(=O)O)cc2)cc1 (stereo unspecified) , please?
RESULT: 3.34

QUERY: Could you do the same for COCCOCOCC#CCC(NS(=O)(=O)c1ccc(-c2ccc(OC)cc2)cc1)C(=O)O (stereo unspecified) , please?
RESULT: 6.51

QUERY: Could you do the same for O=C(O)C(CC#Cc1ccccc1)NS(=O)(=O)c1ccc(-c2ccc3c(c2)OCO3)cc1 (stereo unspecified) , please?
RESULT: 10.3

====

Observed IC50 for 72 kDa type IV collagenase (Homo sapiens, UniProt P08253), reported per entry below.
Form entry: value (nM) — number only.

QUERY: Data request, read-out IC50, for O=C(O)C(CC#CCN1CCCC1)NS(=O)(=O)c1ccc(-c2ccccc2)cc1 (configuration not stated)
RESULT: 380

QUERY: Could you do the same for COCCOCOCC#CCC(NS(=O)(=O)c1ccc(-c2ccc(OC)cc2)cc1)C(=O)O (configuration not stated) , please?
RESULT: 33

QUERY: Could you do the same for O=C(O)C(CC#CCN1CCOCC1)NS(=O)(=O)c1ccc(-c2ccccc2)cc1 (configuration not stated) , please?
RESULT: 297

QUERY: Could you do the same for COCC#CCC(NS(=O)(=O)c1ccc(-c2ccc(Br)cc2)cc1)C(=O)O (configuration not stated) , please?
RESULT: 17

QUERY: Could you do the same for O=C(O)C(CC#Cc1ccccc1)NS(=O)(=O)c1ccc(-c2ccc3c(c2)OCO3)cc1 (configuration not stated) , please?
RESULT: 29

QUERY: Could you do the same for O=C(O)C(CC#Cc1ccccc1)NS(=O)(=O)c1ccc(-c2ccc(Oc3ccccc3)cc2)cc1 (configuration not stated) , please?
RESULT: 1470

QUERY: Could you do the same for COc1ccc(-c2ccc(S(=O)(=O)NC(CC#Cc3cccc(N4CCOCC4)c3)C(=O)O)cc2)cc1 (configuration not stated) , please?
RESULT: 16

QUERY: Could you do the same for COCC#CCC(NS(=O)(=O)c1ccc(NC(=O)c2ccc(Br)cc2)cc1)C(=O)O (configuration not stated) , please?
RESULT: 6

QUERY: Could you do the same for O=C(O)C(CC#Cc1ccccc1)NS(=O)(=O)c1ccc(-c2ccc(-c3ccccc3)cc2)cc1 (configuration not stated) , please?
RESULT: 29

QUERY: Could you do the same for COc1ccc(C#Cc2ccc(S(=O)(=O)NC(CC#CCN3CCOCC3)C(=O)O)cc2)cc1 (configuration not stated) , please?
RESULT: 28

QUERY: Could you do the same for O=C(Nc1ccc(S(=O)(=O)NC(CC#CCOc2ccccc2)C(=O)O)cc1)c1ccc(Br)cc1 (configuration not stated) , please?
RESULT: 9

QUERY: Could you do the same for COCC#CCC(NS(=O)(=O)c1ccc(-c2ccc(OC)cc2)cc1)C(=O)O (configuration not stated) , please?
RESULT: 20

Entry source: ChEMBL document CHEMBL1134384
